- ASSAY_TARGET: full-length beta-Catenin (Uniprot ID P35222) (Homo sapiens, UniProt P35222)
- Construct: 10 nM full-length beta-Catenin (Uniprot ID P35222)
- Sequence (P35222 whole entry): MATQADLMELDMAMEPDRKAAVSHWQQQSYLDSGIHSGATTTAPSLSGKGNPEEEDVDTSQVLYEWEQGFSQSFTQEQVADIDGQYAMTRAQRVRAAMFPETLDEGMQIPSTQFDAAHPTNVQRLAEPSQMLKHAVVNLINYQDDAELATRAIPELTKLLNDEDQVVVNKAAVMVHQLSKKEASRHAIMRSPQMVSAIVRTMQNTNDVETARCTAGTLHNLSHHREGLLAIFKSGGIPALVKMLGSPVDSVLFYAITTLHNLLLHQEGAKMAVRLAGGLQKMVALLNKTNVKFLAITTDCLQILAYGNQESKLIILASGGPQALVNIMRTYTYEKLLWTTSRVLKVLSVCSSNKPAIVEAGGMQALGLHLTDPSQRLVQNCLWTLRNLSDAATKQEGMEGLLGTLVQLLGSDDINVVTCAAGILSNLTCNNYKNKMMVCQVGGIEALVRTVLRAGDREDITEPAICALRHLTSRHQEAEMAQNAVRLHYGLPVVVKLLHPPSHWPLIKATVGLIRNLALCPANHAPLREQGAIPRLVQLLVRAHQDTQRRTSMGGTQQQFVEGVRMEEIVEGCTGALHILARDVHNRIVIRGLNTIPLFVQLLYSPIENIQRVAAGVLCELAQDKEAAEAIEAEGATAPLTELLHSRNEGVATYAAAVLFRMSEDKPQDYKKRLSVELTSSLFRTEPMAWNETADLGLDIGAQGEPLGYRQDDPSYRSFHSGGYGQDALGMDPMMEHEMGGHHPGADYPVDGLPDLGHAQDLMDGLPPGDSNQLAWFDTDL
- MEASUREMENT_DESCRIPTION: Fluorescence polarization IC50 (beta-catenin / 5FAM-TCF4 10-53 competition)
- Format: binding
- MEASUREMENT_PARAMETERS: fluorescence polarization; read-out: beta-Catenin FP IC50
Overview of recorded IC50 for various molecules
Numbers only; they are read as nM.

[[record]]
molecule = "CC(=O)N1CCC[C@]12CC=CCCCC1(CCCC=CCCCOC(=O)N3CC[C@@](C(=O)N[C@@H](Cc4cccc(Br)c4)C(=O)N[C@@H](Cc4ccsc4)C(=O)N[C@@H](CCC(N)=O)C(N)=O)(C3)NC(=O)[C@H](CC(C)C)NC(=O)[C@H](Cc3ccccc3)NC(=O)[C@H](C)NC(=O)[C@H](C)NC(=O)[C@H](Cc3cccc(C(=O)O)c3)NC(=O)[C@H](CC(=O)O)NC1=O)NC(=O)[C@H](CC(C)(C)C)NC(=O)[C@H](CC(=O)O)NC2=O (stereo partly drawn)"
assay_target = "full-length beta-Catenin (Uniprot ID P35222) (Homo sapiens, UniProt P35222)"
property_name = "IC50"
unit_abbreviation = "nM"
measured_value = 3080

[[record]]
molecule = "CC(=O)N1CCC[C@]12CCCCCCC1(CCCCCCCCOC(=O)N3CC[C@@](C(=O)N[C@@H](Cc4ccccc4C(F)(F)F)C(=O)N[C@@H](Cc4csc5ccccc45)C(=O)N[C@@H](CCC(N)=O)C(N)=O)(C3)NC(=O)[C@H](CC(C)C)NC(=O)[C@H](Cc3ccccc3)NC(=O)[C@H](C)NC(=O)[C@H](C)NC(=O)[C@H](Cc3cccc(C(=O)O)c3)NC(=O)[C@H](CC(=O)O)NC1=O)NC(=O)[C@H](CC(C)(C)C)NC(=O)[C@H](CC(=O)O)NC2=O (stereo partly drawn)"
assay_target = "full-length beta-Catenin (Uniprot ID P35222) (Homo sapiens, UniProt P35222)"
property_name = "IC50"
unit_abbreviation = "nM"
measured_value = 123

[[record]]
molecule = "CC(=O)N1CCC[C@]12CC=CCCCC1(CCCC=CCCCOC(=O)N3CC[C@@](C(=O)N[C@@H](Cc4ccsc4)C(=O)N[C@@H](Cc4csc5ccccc45)C(=O)N[C@@H](C)C(N)=O)(C3)NC(=O)[C@H](CC(C)C)NC(=O)[C@H](Cc3ccccc3)NC(=O)[C@H](C)NC(=O)[C@H](CCC(N)=O)NC(=O)[C@H](Cc3ccc(F)c(C(=O)O)c3)NC(=O)[C@H](CC(=O)O)NC1=O)NC(=O)[C@H](CC(C)(C)C)NC(=O)[C@H](CC(=O)O)NC2=O (stereo partly drawn)"
assay_target = "full-length beta-Catenin (Uniprot ID P35222) (Homo sapiens, UniProt P35222)"
property_name = "IC50"
unit_abbreviation = "nM"
measured_value = 7

[[record]]
molecule = "CC(=O)N1CCC[C@]12CC=CCCCC1(CCCC=CCCCOC(=O)N3CC[C@@](C(=O)N[C@@H](Cc4ccsc4)C(=O)N[C@@H](Cc4csc5ccccc45)C(=O)N[C@@H](CCC(N)=O)C(N)=O)(C3)NC(=O)[C@H](CCCN3CCOCC3)NC(=O)[C@H](Cc3ccccc3)NC(=O)[C@H](C)NC(=O)[C@H](C)NC(=O)[C@H](CC(=O)O)NC(=O)[C@H](CC(=O)O)NC1=O)NC(=O)[C@H](CC(C)(C)C)NC(=O)[C@H](CC(=O)O)NC2=O (stereo partly drawn)"
assay_target = "full-length beta-Catenin (Uniprot ID P35222) (Homo sapiens, UniProt P35222)"
property_name = "IC50"
unit_abbreviation = "nM"
measured_value = 7

[[record]]
molecule = "CC(=O)N1CCC[C@]12CC=CCCCC1(CCCC=CCCCCC[C@@](C)(C(=O)N[C@@H](Cc3ccsc3)C(=O)N[C@@H](Cc3csc4ccccc34)C(=O)N[C@@H](CCC(N)=O)C(N)=O)NC(=O)[C@H](CC(C)C)NC(=O)[C@H](Cc3ccccc3)NC(=O)[C@H](C)NC(=O)[C@H](C)NC(=O)[C@H](CC(=O)O)NC(=O)[C@H](CC(=O)O)NC1=O)NC(=O)[C@H](CC(C)(C)C)NC(=O)[C@H](CC(=O)O)NC2=O (stereo partly drawn)"
assay_target = "full-length beta-Catenin (Uniprot ID P35222) (Homo sapiens, UniProt P35222)"
property_name = "IC50"
unit_abbreviation = "nM"
measured_value = 422

[[record]]
molecule = "CC(=O)N1CCC[C@]12CC=CCCCC1(CCCC=CCCCOC(=O)N3CC[C@@](C(=O)N[C@@H](Cc4ccsc4)C(=O)N[C@@H](Cc4csc5ccccc45)C(=O)N[C@@H](CCC(N)=O)C(N)=O)(C3)NC(=O)[C@H](CC(C)C)NC(=O)[C@H](Cc3ccccc3)NC(=O)[C@H](C)NC(=O)[C@H](C)NC(=O)[C@H](Cc3c[nH]cn3)NC(=O)[C@H](CC(=O)O)NC1=O)NC(=O)[C@H](CC(C)(C)C)NC(=O)[C@H](CC(=O)O)NC2=O (stereo partly drawn) [I-1796]"
assay_target = "full-length beta-Catenin (Uniprot ID P35222) (Homo sapiens, UniProt P35222)"
property_name = "IC50"
unit_abbreviation = "nM"
measured_value = 22

[[record]]
molecule = "CC(=O)N1CCC[C@]12CC=CCCCC1(CCCC=CCCCOC(=O)N3CC[C@@](C(=O)N[C@@H](Cc4ccccc4C)C(=O)N[C@@H](Cc4csc5ccccc45)C(=O)N[C@@H](CCC(N)=O)C(N)=O)(C3)NC(=O)[C@H](CC(N)=O)NC(=O)[C@H](Cc3ccccc3)NC(=O)[C@H](C)NC(=O)[C@H](C)NC(=O)[C@H]([C@@H](C)O)NC(=O)[C@H](CC(N)=O)NC1=O)NC(=O)[C@H](CC(C)(C)C)NC(=O)[C@H](CC(=O)O)NC2=O (stereo partly drawn)"
assay_target = "full-length beta-Catenin (Uniprot ID P35222) (Homo sapiens, UniProt P35222)"
property_name = "IC50"
unit_abbreviation = "nM"
measured_value = 518

[[record]]
molecule = "CC(=O)N1CCC[C@]12CC=CCCCC1(CCCC=CCCCOC(=O)N3CC[C@@](C(=O)N[C@@H](Cc4ccsc4)C(=O)N[C@@H](Cc4ccc(F)c(F)c4)C(=O)N[C@@H](CCC(N)=O)C(N)=O)(C3)NC(=O)[C@H](CC(C)C)NC(=O)[C@H](Cc3ccccc3)NC(=O)[C@H](C)NC(=O)[C@H](C)NC(=O)[C@H](CC(=O)O)NC(=O)[C@H](CC(=O)O)NC1=O)NC(=O)[C@H](CC(C)(C)C)NC(=O)[C@H](CC(=O)O)NC2=O (stereo partly drawn)"
assay_target = "full-length beta-Catenin (Uniprot ID P35222) (Homo sapiens, UniProt P35222)"
property_name = "IC50"
unit_abbreviation = "nM"
measured_value = 33


Query: Look at this molecule and give its reported IC50. CC(=O)N1CCC[C@]12CC=CCCCC1(CCCC=CCCCOC(=O)N3CC[C@@](C(=O)N[C@@H](Cc4ccccc4C(F)(F)F)C(=O)N[C@@H](Cc4csc5ccccc45)C(=O)N[C@@H](CCC(N)=O)C(=O)N[C@@H](CC(C)C)C(=O)N[C@H](C(N)=O)C(C)C)(C3)NC(=O)[C@H](CC(C)C)NC(=O)[C@H](Cc3ccccc3)NC(=O)[C@H](C)NC(=O)[C@H](C)NC(=O)[C@H](Cc3cccc(C(=O)O)c3)NC(=O)[C@H](CC(=O)O)NC1=O)NC(=O)[C@H](CC(C)(C)C)NC(=O)[C@H](CC(=O)O)NC2=O (stereo partly drawn)
Result: 246

* * *

- ASSAY_TARGET: beta-catenin/TCF4 engagement (Homo sapiens, UniProt P35222)
- Construct: expressed in transfected cells; host or cells: HEK293
- Sequence (P35222 whole entry): as above
- MEASUREMENT_DESCRIPTION: Nano-BRET target engagement assay (B-cat-Halo & TCF4-Luc in HEK293 cells)
- Format: cell-based
- MEASUREMENT_PARAMETERS: read-out: NanoBRET Abs IC50
PROPERTY_NAME: IC50 (µM)
Numbers only here, please. The scale is µM.

[[record]]
compound = "CC(=O)N1CCC[C@]12CC=CCCCC1(CCCC=CCCCOC(=O)N3CC[C@@](C(=O)N[C@@H](Cc4ccccc4C(F)(F)F)C(=O)N[C@@H](Cc4csc5ccccc45)C(=O)N[C@@H](C)C(N)=O)(C3)NC(=O)[C@H](CC(C)C)NC(=O)[C@H](Cc3ccccc3)NC(=O)[C@H](C)NC(=O)[C@H]([C@@H](C)O)NC(=O)[C@H](Cc3cccc(C(=O)O)c3)NC(=O)[C@H](CC(=O)O)NC1=O)NC(=O)[C@H](CC(C)(C)C)NC(=O)[C@H](CC(=O)O)NC2=O (stereo partly drawn) [I-2060]"
property_name = "IC50"
measured_value = 9.6


Attention now turns to another entry.
Query: Could you tell me which IC50 is on file for COc1cccc(C[C@@H]2NC(=O)[C@H](C)NC(=O)[C@H](C)NC(=O)[C@H](CC(=O)O)NC(=O)[C@H](CC(=O)O)NC(=O)C3(CCCC=CCCCOC(=O)N4CC[C@@](C(=O)N[C@@H](Cc5ccccc5)C(=O)N[C@@H](Cc5csc6ccccc56)C(=O)N[C@@H](CCC(N)=O)C(N)=O)(C4)NC(=O)[C@H](CC(C)C)NC2=O)CCCC=CC[C@]2(CCCN2C(C)=O)C(=O)N[C@@H](CC(=O)O)C(=O)N[C@@H](CC(C)(C)C)C(=O)N3)c1 (stereo partly drawn) [I-1127] ?
Result: 5.4

The measured values listed here are drawn from patent US20240116985A1.
